# ASSAY_SYSTEM: human factor VIIa and TF (factor VIIa/tissue factor) (Homo sapiens, UniProt P08709)
# Construct: human factor VIIa and TF
# Sequence (P08709 213-466 limits assumed): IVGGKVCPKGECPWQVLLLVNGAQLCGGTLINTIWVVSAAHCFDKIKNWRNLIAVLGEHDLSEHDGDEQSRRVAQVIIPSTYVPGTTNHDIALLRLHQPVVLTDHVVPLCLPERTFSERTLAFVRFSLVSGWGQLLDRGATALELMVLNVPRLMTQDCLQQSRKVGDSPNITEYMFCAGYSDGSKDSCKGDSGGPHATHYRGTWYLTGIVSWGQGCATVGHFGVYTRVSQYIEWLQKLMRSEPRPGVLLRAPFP
# Sequence (P08709 61-212 limits assumed): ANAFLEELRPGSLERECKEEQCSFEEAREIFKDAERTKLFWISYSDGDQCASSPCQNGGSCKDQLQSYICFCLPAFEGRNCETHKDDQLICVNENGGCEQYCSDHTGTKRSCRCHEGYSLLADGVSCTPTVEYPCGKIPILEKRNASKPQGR
# Sequence (P13726 33-295 partner): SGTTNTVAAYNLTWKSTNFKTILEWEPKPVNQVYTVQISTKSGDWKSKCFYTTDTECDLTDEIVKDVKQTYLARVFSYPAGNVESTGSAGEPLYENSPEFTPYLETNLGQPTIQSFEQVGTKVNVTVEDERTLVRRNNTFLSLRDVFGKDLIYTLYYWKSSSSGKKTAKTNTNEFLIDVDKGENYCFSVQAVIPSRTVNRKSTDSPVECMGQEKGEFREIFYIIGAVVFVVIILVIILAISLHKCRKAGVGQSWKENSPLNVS
# TEST_DESCRIPTION: Factor VIIa (FVIIa) chromogenic assay
# CONDITION_CONTEXT: chromogenic substrate S-2288 500 μM; 5 nM FVIIa, 10 nM TF; 25° C.; 15 minute preincubation; pH 8.15
Below, each of the compounds is paired with its reported pKi value.
# log scale: pKi equals minus log10 of the concentration in mol/L

Previously resolved entries follow.
{"COMPOUND": "COC1CCC(Oc2ccc(C(C)NC(=O)CC(=O)Nc3ccc(C(=N)N)cc3)cc2C(F)(F)F)CC1 (stereo not shown)", "ASSAY_SYSTEM": "human factor VIIa and TF (factor VIIa/tissue factor) (Homo sapiens, UniProt P08709)", "pKi": 7.10}
{"COMPOUND": "COCCN(C)S(=O)(=O)c1ccc([C@H](C)NC(=O)CC(=O)Nc2ccc(C(=N)N)cc2)cc1C(F)(F)F", "ASSAY_SYSTEM": "human factor VIIa and TF (factor VIIa/tissue factor) (Homo sapiens, UniProt P08709)", "pKi": 7.57}
{"COMPOUND": "C[C@H](NC(=O)CC(=O)Nc1ccc(C(=N)N)cc1)c1ccc(S(=O)(=O)N2CCOC[C@@H]2C)c(C(F)(F)F)c1", "ASSAY_SYSTEM": "human factor VIIa and TF (factor VIIa/tissue factor) (Homo sapiens, UniProt P08709)", "pKi": 7.54}

Note: attention shifts to another entry.
// pKi value for CC(NC(=O)CC(=O)Nc1ccc(C(=N)N)cc1)c1ccc(S(=O)(=O)c2ccncc2)c(C(F)(F)F)c1 (stereo not shown) : 7.44
